- System under test: Cytochrome P450 2C19 (Homo sapiens, UniProt P33261)
- Sequence (P33261 whole entry): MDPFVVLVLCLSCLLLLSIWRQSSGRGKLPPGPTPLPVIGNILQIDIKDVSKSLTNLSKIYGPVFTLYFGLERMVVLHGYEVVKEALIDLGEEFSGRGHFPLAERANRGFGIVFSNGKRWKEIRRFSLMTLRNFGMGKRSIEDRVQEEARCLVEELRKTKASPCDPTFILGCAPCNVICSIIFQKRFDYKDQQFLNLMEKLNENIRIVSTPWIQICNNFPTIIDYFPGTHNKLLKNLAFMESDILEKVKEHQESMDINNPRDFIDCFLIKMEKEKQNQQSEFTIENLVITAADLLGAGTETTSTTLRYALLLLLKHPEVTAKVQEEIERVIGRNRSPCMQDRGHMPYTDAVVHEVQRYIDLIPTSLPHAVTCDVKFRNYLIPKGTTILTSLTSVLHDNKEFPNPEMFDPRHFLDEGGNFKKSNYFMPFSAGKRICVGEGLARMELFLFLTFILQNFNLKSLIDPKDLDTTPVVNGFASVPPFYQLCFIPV
pIC50: −log10 of the molar value.
Outcome measure: pIC50

Prompt line: Value wanted: pIC50 (Cytochrome P450 2C19 (Homo sapiens, UniProt P33261)) of entry C1=N/C2=N/c3ccc(OCCN4CCCC4)c(c3)COC/C=C/COCc3cccc(c3)C(=C1)N2 (mixture of isomers)
Response line: < 5.30

---

- System under test: Tyrosine-protein kinase JAK1 (Homo sapiens, UniProt P23458)
- Sequence (P23458 whole entry): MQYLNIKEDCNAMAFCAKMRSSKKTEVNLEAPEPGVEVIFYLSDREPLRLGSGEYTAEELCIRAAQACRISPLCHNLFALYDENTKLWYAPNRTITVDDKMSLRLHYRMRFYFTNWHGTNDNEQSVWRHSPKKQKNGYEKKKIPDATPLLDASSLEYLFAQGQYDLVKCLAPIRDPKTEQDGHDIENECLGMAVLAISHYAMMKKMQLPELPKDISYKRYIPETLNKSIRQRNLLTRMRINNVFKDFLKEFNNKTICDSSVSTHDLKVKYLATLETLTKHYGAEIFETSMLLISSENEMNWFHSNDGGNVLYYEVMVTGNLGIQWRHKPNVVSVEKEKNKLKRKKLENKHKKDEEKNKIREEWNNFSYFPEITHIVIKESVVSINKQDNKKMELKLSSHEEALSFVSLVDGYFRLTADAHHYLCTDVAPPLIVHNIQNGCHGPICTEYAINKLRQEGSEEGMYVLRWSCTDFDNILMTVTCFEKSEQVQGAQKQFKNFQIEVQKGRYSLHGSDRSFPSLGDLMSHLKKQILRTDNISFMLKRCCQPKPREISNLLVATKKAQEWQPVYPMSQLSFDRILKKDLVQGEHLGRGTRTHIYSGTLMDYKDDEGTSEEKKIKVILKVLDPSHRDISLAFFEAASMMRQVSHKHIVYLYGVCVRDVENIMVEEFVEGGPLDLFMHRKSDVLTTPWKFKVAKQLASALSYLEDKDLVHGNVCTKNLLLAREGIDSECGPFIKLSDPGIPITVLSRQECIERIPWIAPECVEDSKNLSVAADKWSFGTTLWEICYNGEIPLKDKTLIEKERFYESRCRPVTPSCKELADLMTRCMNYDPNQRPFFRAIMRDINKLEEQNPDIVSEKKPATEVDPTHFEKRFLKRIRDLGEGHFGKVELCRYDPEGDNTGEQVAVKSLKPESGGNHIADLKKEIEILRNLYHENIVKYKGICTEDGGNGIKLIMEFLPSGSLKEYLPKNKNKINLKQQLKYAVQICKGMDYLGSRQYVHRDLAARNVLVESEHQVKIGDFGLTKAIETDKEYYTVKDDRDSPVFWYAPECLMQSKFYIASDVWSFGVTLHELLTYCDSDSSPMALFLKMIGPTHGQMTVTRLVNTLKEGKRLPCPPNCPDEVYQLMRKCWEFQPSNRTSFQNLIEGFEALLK
- Assay remarks: Inhibition of recombinant JAK1 using Poly (Glu,Ala,Tyr) as substrate after 2 hrs by luminescence assay
This listing pairs compounds with measured pIC50.
Scale explanation: pIC50 corresponds to minus log10 of a concentration expressed in moles per litre.

Check out these entries, answers already filled in.
CCN(CC)CCOc1ccc2cc1COCC=CCOCc1cccc(c1)-c1ccnc(n1)N2 (mixture of isomers) = 5.46
C1=CCOCc2cc(ccc2N2CCOCC2)Nc2nccc(n2)-c2cccc(c2)COC1 (mixture of isomers) = 5.06

Prompt line: Any idea what its pIC50 is? The compound is CCN(CC)CCC(=O)Nc1cc2cc(c1)Nc1nccc(n1)-c1cccc(c1)COCC=CCOC2 (mixture of isomers)
Response line: 5.72

Prompt line: So what's the measured pIC50 for this one? C1=CCOCc2cccc(c2)-c2ccnc(n2)Nc2cc(cc(OCCN3CCOCC3)c2)COC1 (mixture of isomers)
Response line: 5.62

Prompt line: What measured pIC50 goes with COc1cc2cc(c1OCCN1CCCC1)COCC=CCOCc1cccc(c1)-c1ccnc(n1)N2 (mixture of isomers) ?
Response line: 5.77

Prompt line: Fill blank: measured pIC50 of the compound Cc1cnc2nc1-c1cccc(c1)COCC=CCOCc1cc(ccc1OCCN1CCCC1)N2 is ____.
Response line: 6.00

Prompt line: Consider the compound shown here: CC(=O)N1CCN(c2ccc3cc2COCC=CCOCc2cccc(c2)-c2ccnc(n2)N3)CC1 (mixture of isomers) What is its recorded pIC50?
Response line: 5.55
